# System: HEK293T cells
# Assay Overview: CellTiter-Glo cytotoxicity of selected compounds (manual, 72 h)
# Assay type: cell-based, human
# Test Context: up to 10 μM
Quantity Kind: EC50

{"columns": ["Compound", "EC50"],
 "data": [
  ["O=C1CCC(N2C(=O)c3ccc(Nc4cccc(OS(=O)(=O)N5CC(CCO)C5)c4)cc3C2=O)C(=O)N1 (stereo not drawn)", "> 10 µM"],
  ["CN(C)c1ncc(CN(C)S(=O)(=O)Oc2cccc(Nc3ccc4c(c3)C(=O)N(C3CCC(=O)NC3=O)C4=O)c2)cn1 (stereo not drawn)", "> 10 µM"]
]}

Now consider a different compound.
Query block: What EC50 value was documented for this compound, O=C1CCC(N2C(=O)c3ccc(Nc4cccc(OS(=O)(=O)N5CCC(c6ccco6)C5)c4)cc3C2=O)C(=O)N1 (stereo not drawn) ?
Result block: > 10 µM
